Values were extracted from ChEMBL document CHEMBL1201861.

- Test system: NOMO-1;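 also: growth inhibition of human NOMO-1 cells measured by a cell viability assay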
- test-name: cells
- Format: functional, cell-based, Homo sapiens
- study-conditions: Homo sapiens, NOMO-1
- Description: SANGER: Inhibition of human NOMO-1 cell growth in a cell viability assay.
pIC50: −log10 of the molar value. Where a name gives a salt, the structure may show the parent alone.
Provide the reported pIC50 of each item.

Record Nc1cccc2c1CN(C1CCC(=O)NC1=O)C2=O (stereo not drawn) [LENALIDOMIDE] . Reported pIC50: < 5.30

Summary for this compound, COC1=CC(c2cc3ccccc3[nH]2)=N/C1=C\c1[nH]c(C)cc1C [OBATOCLAX MESYLATE] : pIC50 is 6.25

The measured pIC50 associated with COc1cc(N2CCN(C)CC2)ccc1Nc1ncc2c(n1)N(C)c1ccccc1C(=O)N2C reads < 5.10
